- Target desc: Type-1 angiotensin II receptor (Homo sapiens) (UniProt P30556)
- Sequence (P30556 whole entry, looked up): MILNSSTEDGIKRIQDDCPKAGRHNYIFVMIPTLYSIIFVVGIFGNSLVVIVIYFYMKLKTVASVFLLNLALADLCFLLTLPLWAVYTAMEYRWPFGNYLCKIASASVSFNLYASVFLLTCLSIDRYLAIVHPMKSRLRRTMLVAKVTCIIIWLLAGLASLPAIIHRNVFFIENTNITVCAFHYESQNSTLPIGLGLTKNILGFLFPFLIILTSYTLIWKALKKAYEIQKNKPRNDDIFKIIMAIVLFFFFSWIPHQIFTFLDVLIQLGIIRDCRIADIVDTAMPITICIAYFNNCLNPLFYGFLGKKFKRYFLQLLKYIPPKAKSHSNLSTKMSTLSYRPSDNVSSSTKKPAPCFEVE
- Assay overview: AGTR1 activation selectivity check – cell-based, CHO-K1 PathHunter, luminescence, set 2, selectivity assay for APJ agonist project, SAR follow-up (AID 488986)
- Condition description: CHO-K1 AGTR1 PathHunter beta-arrestin, 90 min
The source made the active and inactive calls.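 Rule for the calls: active = mean EC50 below 10 µM; inactive = the rest.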
Give one outcome, nothing more. List: active, inactive

Solved entries (count: 6):
What call does the record list for `CC1=CC(=O)C(C2CCCCC2)=C/C1=N/OS(=O)(=O)c1ccccc1` ?
inactive

Cool, now `CCN1C(=O)/C(=C/C=C2/SC(c3ccccc3)=C(c3ccccc3)N2CC)SC1=S`
inactive

Now try `CC1=CC(=NOS(=O)(=O)c2ccccc2)C(C)=CC1=O` .
inactive

Ok, now `CCc1nnc(NC(=O)CSc2nc3cccnc3n2Cc2ccccc2)s1`
inactive

Can you handle `CCN1C(c2ccccc2)=C(c2ccccc2)S/C1=C\C=C1/SC(=S)N(C)C1=O` next?
active

# iterate: `CC(C)C1=CC(=NOS(=O)(=O)c2ccccc2)C=C(C(C)C)C1=O`
inactive

---
Would you mind telling me which call this test gave `Cc1cc(C)n2nc3nc(N4CCCCC4)nc(-c4ccccc4)c3c2n1` ?
inactive

// same read-out, input: `CC1=CC(=O)C(C(C)(C)C)=C/C1=N/OS(=O)(=O)c1ccccc1`
inactive

What about this molecule? `CCN1C(=O)/C(=C/C=C2/Sc3ccccc3N2CC)SC1=S`
inactive

Can you check `CCOc1cc2[nH]c(=S)n(CCCC(=O)NCc3ccccn3)c(=O)c2cc1OCC` next?
inactive

And what about the molecule `CC1=C/C(=N/OS(=O)(=O)c2ccccc2)C(C(C)C)=CC1=O` ?
inactive

What about this molecule? `CC1=CC(=O)C=C/C1=N/OS(=O)(=O)c1ccc(C)cc1`
inactive
